hERG current change (%, negative = inhibition) at 10uM: recorded values
SYSTEM TESTED: human ether-à-go-go-related gene (hERG) potassium channel (human, UniProt Q12809)
Sequence (Q12809 whole entry, looked up): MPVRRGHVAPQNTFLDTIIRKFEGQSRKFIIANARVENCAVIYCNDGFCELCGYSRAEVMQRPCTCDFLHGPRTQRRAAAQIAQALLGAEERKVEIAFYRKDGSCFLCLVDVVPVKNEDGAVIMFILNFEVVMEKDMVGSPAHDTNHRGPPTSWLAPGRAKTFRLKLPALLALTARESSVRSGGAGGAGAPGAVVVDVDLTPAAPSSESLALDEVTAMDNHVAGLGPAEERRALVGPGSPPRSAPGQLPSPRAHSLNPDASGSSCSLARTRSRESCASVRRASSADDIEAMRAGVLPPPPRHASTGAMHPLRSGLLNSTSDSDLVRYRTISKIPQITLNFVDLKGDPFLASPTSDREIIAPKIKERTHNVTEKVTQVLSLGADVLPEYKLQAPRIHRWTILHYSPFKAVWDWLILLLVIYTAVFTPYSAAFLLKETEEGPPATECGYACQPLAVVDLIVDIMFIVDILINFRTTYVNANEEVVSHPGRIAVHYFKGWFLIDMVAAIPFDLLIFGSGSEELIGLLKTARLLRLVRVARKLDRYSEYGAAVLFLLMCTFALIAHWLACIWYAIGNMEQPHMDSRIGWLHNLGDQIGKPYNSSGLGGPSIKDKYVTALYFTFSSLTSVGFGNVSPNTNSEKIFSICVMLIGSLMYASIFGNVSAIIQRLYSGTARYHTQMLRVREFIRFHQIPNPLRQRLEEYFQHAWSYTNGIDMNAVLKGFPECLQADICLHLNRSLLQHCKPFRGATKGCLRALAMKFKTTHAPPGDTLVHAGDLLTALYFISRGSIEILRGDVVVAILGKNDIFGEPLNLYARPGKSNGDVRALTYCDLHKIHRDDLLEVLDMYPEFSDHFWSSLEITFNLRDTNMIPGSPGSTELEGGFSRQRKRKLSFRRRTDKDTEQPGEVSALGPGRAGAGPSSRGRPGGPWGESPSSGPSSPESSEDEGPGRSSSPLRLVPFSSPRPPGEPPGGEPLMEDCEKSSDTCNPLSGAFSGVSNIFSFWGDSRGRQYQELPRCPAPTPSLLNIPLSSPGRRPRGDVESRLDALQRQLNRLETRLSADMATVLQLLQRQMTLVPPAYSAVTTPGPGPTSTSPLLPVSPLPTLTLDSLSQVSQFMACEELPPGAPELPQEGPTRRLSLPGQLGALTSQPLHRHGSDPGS
EXPERIMENTAL PROTOCOL: primary screen, population patch clamp on CHO cells stably expressing hERG; higher = less effect of the substance
Screen size: about 310,000 compounds; about 14,000 (4.5%) showed an effect of 50% or more. The effect is printed as a negative number. What follows is part of a selection rich in strong results, with near analogues and random picks from the rest.
Kindly answer with a numeric value in %, unit omitted.

Cc1cc(NCC(C)C)n2ncnc2n1; 14
CC(=O)c1ccc(N2CCN(CC(O)COC(c3ccccc3)c3ccccc3C)CC2)cc1 (stereo not shown); -41
CC(=O)N(C)c1ccc(NC(=O)c2cnn(C)c2)cc1; 3.39
O=C(O)C(=O)O.OC(COCc1ccco1)CN1CCN(c2ccccc2)CC1 (stereo not shown); -24.8
CCOc1ccc(OCC)c(NC(=O)CN2CCN(c3cc(C)ccc3C)CC2)c1.Cl; -9.35

Give hERG current change (%, negative = inhibition) at 10uM for the following compound: `COC(=O)c1ccc(OC)c(CSc2nnc(-c3ccc(C(C)(C)C)cc3)o2)c1`
9.83

Supply hERG current change (%, negative = inhibition) at 10uM value. Item: `COc1ccc(OC)c(CN2CCN(C(=O)c3cccc(S(=O)(=O)Nc4ccccc4OC)c3)CC2)c1`
-38.2

Let me know recorded hERG current change (%, negative = inhibition) at 10uM for `Cc1ccc(Cl)cc1N1CCN(Cc2nnnn2Cc2ccco2)CC1` , thanks.
-37.9

Hello, please tell me recorded hERG current change (%, negative = inhibition) at 10uM for this one: `CCOc1ccc(OCC)c(NC(=O)CN2CCN(CC)CC2)c1.Cl`
-43.3

Name the recorded hERG current change (%, negative = inhibition) at 10uM of the compound listed here: `Cc1ccc(NC(=O)C(=O)NCCN2CCN(S(C)(=O)=O)CC2)cc1C`
0.0768

Could you please provide reported hERG current change (%, negative = inhibition) at 10uM for `O=C(c1ccc([N+](=O)[O-])s1)N1CCN(c2cccc(Cl)c2)CC1` ? Thanks!
-66.1

Specify reported hERG current change (%, negative = inhibition) at 10uM for the compound shown: `O=C(O)C(=O)O.O=S(=O)(c1ccc(F)cc1)N1CCC(N2CCCCCC2)CC1`
-26.3

Assign hERG current change (%, negative = inhibition) at 10uM to the following record: `O=C(CSc1n[nH]c(-c2ccncc2)n1)Nc1ccc(Br)cc1`
-2.1

* * *

// reported hERG current change (%, negative = inhibition) at 10uM per item
SYSTEM TESTED: human ether-à-go-go-related gene (hERG) potassium channel (human, UniProt Q12809);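 further: peak tail current of the secondary pulse compared with the same well before compound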
EXPERIMENTAL PROTOCOL: primary screen, population patch clamp on CHO cells stably expressing hERG; higher = less effect of the substance
Among all 310,000 compounds or so, about 14,000 (4.5%) showed an effect of 50% or more. Effects have a minus sign here. This excerpt belongs to a sample that is enriched for strong results.
Field format: number, assumed %, no unit text.

Recorded hERG current change (%, negative = inhibition) at 10uM, per entry:
CC(=O)N1CCc2cc(S(=O)(=O)NC(CC(C)C)C(=O)N3CCCC3)ccc21 (centres unmarked); -20.2
O=C(CN1CCN(C(=O)c2cccc(-n3cnnn3)c2)CC1)Nc1ccccc1Cl; -90.3

Provide one value: measured hERG current change (%, negative = inhibition) at 10uM of `O=C(NCc1ccc(F)cc1)C1CCN(c2cnccn2)CC1`
-64.9

Query hERG current change (%, negative = inhibition) at 10uM for `COc1ccc(NC(=O)c2nnn(CC(=O)Nc3ccccc3OC)c2N)c(OC)c1`
0.272

Report hERG current change (%, negative = inhibition) at 10uM for CC(=O)N1CCc2cc(S(=O)(=O)NC(CC(C)C)C(=O)N3CCc4ccccc4C3)ccc21 (centres unmarked)
-26.8

Give hERG current change (%, negative = inhibition) at 10uM for `Cc1ccc(NC(=O)[C@H](NC(=O)[C@@H]2Cc3ccccc3CN2)c2ccccc2)cc1`
-64.1

* * *

SYSTEM TESTED: human ether-à-go-go-related gene (hERG) potassium channel (human);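 further: peak tail current of the secondary pulse compared with the same well before compound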
EXPERIMENTAL PROTOCOL: primary screen, population patch clamp on CHO cells stably expressing hERG; higher = less effect of the substance
The whole screen tested about 310,000 compounds, of which about 14,000 (4.5%) showed an effect of 50% or more. The effect is printed as a negative number. The entries come from a sample that favours strong results as a whole.
Measured hERG current change (%, negative = inhibition) at 10uM, listed per entry for reference.
State the result as a value with its unit after it.

Cc1ccc(C(=O)N2CCN(c3ccc(NC(=S)NC(=O)Cc4ccccc4)cc3)CC2)cc1; -17.1%

Provide only the value of recorded hERG current change (%, negative = inhibition) at 10uM for `CCCCCCC(=O)Nc1ccc(C(=O)N2CCCC2)cc1`
0.864%

Fill in hERG current change (%, negative = inhibition) at 10uM for record `CN(C)CCCNCC(=O)NN(c1ccccc1)c1ccccc1.O=C(O)C(=O)O`
-17.4%

Let me know recorded hERG current change (%, negative = inhibition) at 10uM for `COc1ccccc1C(=O)N/C(=C\c1cn(S(=O)(=O)N(C)C)c2ccccc12)C(=O)NCCCN1CCOCC1` , thanks.
-7.58%

* * *

SYSTEM TESTED: human ether-à-go-go-related gene (hERG) potassium channel (human, UniProt Q12809);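 further: peak tail current of the secondary pulse compared with the same well before compound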
EXPERIMENTAL PROTOCOL: primary screen, population patch clamp on CHO cells stably expressing hERG; higher = less effect of the substance
The campaign covered roughly 310,000 compounds. About 14,000 (4.5%) showed an effect of 50% or more. The effect is printed as a negative number. The sample as a whole holds a higher share of strong results than the screen did.
ASSAY ENDPOINT: hERG current change (%, negative = inhibition) at 10uM (%)
Quick note: give the figure in %, leave out the unit.

CCC(O)C1CCN(Cc2cn(Cc3ccccc3)nc2-c2cc3ccccc3o2)CC1 (centres unmarked); -65.1

Complete the entry with hERG current change (%, negative = inhibition) at 10uM for `OCC1CCN(Cc2cn(Cc3ccccc3)nc2-c2cc3ccccc3o2)CC1`
-67

Output hERG current change (%, negative = inhibition) at 10uM of `Cn1cc(CN2CCC(C(=O)N3CCCCC3)CC2)c(-c2ccccc2F)n1`
4.1

# return recorded hERG current change (%, negative = inhibition) at 10uM for entry `Cn1cc(CN2CCC(C(=O)N3CCCC3)CC2)c(-c2ccccc2F)n1`
-4.8

Report measured hERG current change (%, negative = inhibition) at 10uM; entry is `N#CCCn1cc(C(=O)O)c(-c2cc3ccccc3o2)n1`
24.6

* * *

SYSTEM TESTED: human ether-à-go-go-related gene (hERG) potassium channel (human, UniProt Q12809);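 further: peak tail current of the secondary pulse compared with the same well before compound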
EXPERIMENTAL PROTOCOL: primary screen, population patch clamp on CHO cells stably expressing hERG; higher = less effect of the substance
Screen size: about 310,000 compounds; about 14,000 (4.5%) showed an effect of 50% or more. The effect is printed as a negative number. The full list was thinned out, with strong results kept by preference.
ASSAY ENDPOINT: hERG current change (%, negative = inhibition) at 10uM (%)
The reply should contain only the number, in %.

Consider the following illustrative entries.
Brc1ccc(-c2nnc3sc(CN4CCN(c5ccccc5)CC4)cn23)cc1; -1.83
COc1cc(C(=O)Nc2ccc3nc(N4CCN(C)CC4)cc(C)c3c2)cc(OC)c1OC; -38.7
Cc1cc(N2CCN(C)CC2)nc2ccc(NC(=O)c3ccc(Br)o3)cc12; -77.4
Cc1ccc(NC(=O)CNc2ccccc2CN(C)C2CCCCC2)cc1; -59.1

Look up hERG current change (%, negative = inhibition) at 10uM of CC(C)C(NC(=O)c1ccc(C(C)(C)C)cc1)C(=O)NC1=NCCS1 (stereo not shown) and report it.
-6.13

Return hERG current change (%, negative = inhibition) at 10uM (reported value) for this compound: `O=C(Nc1ccc2c(c1)OCO2)[C@@H]1CCCN1S(=O)(=O)c1cccc2cccnc12`
-6.18

Provide hERG current change (%, negative = inhibition) at 10uM value for the following compound: `O=C(COc1ccc(F)cc1)Nc1nnc(-c2ccncc2)s1`
-6.52

Fill in hERG current change (%, negative = inhibition) at 10uM for record Cc1cc2c(c(=O)o1)C(c1cccs1)C(C#N)=C(N)O2 (stereo not shown)
4

Supply measured hERG current change (%, negative = inhibition) at 10uM of `CN(Cc1ccccc1NCC(=O)Nc1ccccc1C#N)C1CCCCC1` in your reply.
-33

Supply reported hERG current change (%, negative = inhibition) at 10uM belonging to this compound: `Cc1cc(N2CCN(C)CC2)nc2ccc(NC(=S)N3CCC4(CC3)OCCO4)cc12`
-34
